# Tested on: P. aeruginosa PA14
# Assay Details: Antibiotic susceptibility (MIC assay, broth microdilution)
# Type: cell-based, Pseudomonas aeruginosa PA14
# Measurement Conditions: Matrix 2: 50% human blood plasma + 10% P. aeruginosa culture supernatant in PBS; pre-incubation <10 min
Recorded Metric: MIC

1. CC(C)CC(NC(=O)CNC(=O)C(C)NC(=O)c1ccc(S(=O)(=O)NCC2OC(C)C(O)C(O)C2O)cc1)C(=O)NC(C)C(=O)NCC1CCN(c2cc3c(cc2F)c(=O)c(C(=O)O)cn3C2CC2)C1 (centres unmarked) [Compound 49]: 3.13 to 6.25 µM
2. CC(C)CC(NC(=O)CNC(=O)C(C)NC(=O)c1ccc(S(=O)(=O)NCC2OC(C)C(O)C(O)C2O)cc1)C(=O)NC(C)C(=O)NC1CCN(c2cc3c(cc2F)c(=O)c(C(=O)O)cn3C2CC2)C1 (centres unmarked) [Compound 37]: 0.78 to 1.56 µM
3. O=C(O)c1cn(C2CC2)c2cc(N3CCNCC3)c(F)cc2c1=O [Compound 1, Ciprofloxacin, reference compound]: 0.25 to 0.313 µM
4. CC(C)CC(NC(=O)CNC(=O)C(C)NC(=O)c1ccc(SC2OC(CO)C(O)C(O)C2O)cc1)C(=O)NC(C)C(=O)NCC1CCN(c2cc3c(cc2F)c(=O)c(C(=O)O)cn3C2CC2)C1 (centres unmarked) [Compound 48]: 3.13 to 12.5 µM
5. CC(C)C[C@H](NC(=O)CNC(=O)[C@H](C)NC(=O)c1ccc(S[C@@H]2O[C@H](CO)[C@H](O)[C@H](O)[C@H]2O)cc1)C(=O)N[C@@H](C)C(=O)N[C@H]1CCN(c2cc3c(cc2F)c(=O)c(C(=O)O)cn3C2CC2)C1 [Compound 36]: 0.195 to 0.39 µM
